Target: human epidermal growth factor receptor 2 (HER2), membrane-bound on cells (human, UniProt P04626 23-1255)
Assay: FACS binding; A431 cells
property: EC50 (µg/mL)
API: value field is a number in µg/mL; no unit string.

// query Given the entry HuMab 050 (antibody, V domains shown) VH: EVQLLESGGGLVQPGGSLRLSCAASGFTFSSYAMNWVRQAPGKGLEWVSAISGRGGTTYYADSVKGRFTISRDNSKNTLYLQMSSLRAEDTAVYYCAKARANWDYFDYWGQGTLVTVSS VL: DIQMTQSPSSVSASVGDRVTITCRASQGISSWLAWYQHKPGKAPKLLIYAASILQSGVPSRFSGSGSGTDFTLTISSLQPEDFATYYCQQANSFPITFGQGTRLEIK , report its measured EC50.
// result 1.14

// query # EC50 lookup, item HuMab 169 (antibody, V domains shown) VH: QVQLVQSGAEVKKPGASVKVSCKASGYTFTNYGISWVRQAPGQGLEWMGWLSAYSGNTIYAQKLQGRVTMTTDTSTTTAYMELRSLRSDDTAVYYCARDRIVVRPDYFDYWGQGTLVTVSS VL: EIVLTQSPATLSLSPGERATLSCRASQSVSSYLAWYQQKPGQAPRLLIYDASNRATGIPARFSGSGSGTDFTLTISSLEPEDFAVYYCQQRSNWPRTFGQGTKVEIK
// result 0.415

// query What value of measured EC50 is listed for HuMab 153 (antibody, V domains shown) VH: QVQLVESGGGVVQPGRSLRLSCAASGFTFSDYVIHWVRQAPGKGLEWVTVISYDGSNKYYADSVKGRFTISRDNSKNTLYLQMNSLSAEDTAMYYCARGGITGTTGVFDYWGQGTLVTVSS VL: DIQMTQSPSSLSASVGDRVTITCRASQGISSWLAWYQQKPEKAPKSLIYDASSLQSGVPSRFSGSGYGTDFSLTISSLQPEDFAIYYCQQYKSYPITFGQGTRLEIK ?
// result 0.244

Every entry's value here was drawn from patent US20170369590A1.
